Biological target: mouse PDGF-β receptor tyrosine kinase (Mus musculus)
Construct: a fragment of DNA that codes for the intracellular tyrosine kinase domain; made in house; host or cells: Sf9 insect cells (baculovirus), cell lysate
Assay: PDGF receptor tyrosine kinase assay
Type: biochemical
Conditions: at 50 μM; read-out: Inhibition of Protein Tyrosine Kinases, PDGF, % Inhibition
Procedure: PDGF and FGF Receptor Tyrosine Kinase Assays Full length cDNAs for the mouse PDGF-β and human FGF-1 (flg) receptor tyrosine kinases were obtained from J. Escobedo and prepared as described in J. Biol. Chem., 262:1482-1487 (1991), and PCR primers were designed to amplify a fragment of DNA that codes for the intracellular tyrosine kinase domain. […] Nonspecific activity was defined as radioactivity retained on the filters following incubation of samples with buffer alone (no enzyme). […]
The following compounds are listed with their measured inhibition at 50 µM values.

inputSmiles: Cc1cc(C)cc(-c2cc3cnc(N)nc3nc2N)c1
inhibition at 50 µM: 11.5%

inputSmiles: COc1cccc(-c2cc3cnc(N)nc3nc2N)c1
inhibition at 50 µM: 44.4%

Would you kindly share the measured inhibition at 50 µM for "COc1cccc(OC)c1-c1cc2cnc(N)nc2nc1N" ?
13%

---

Target: C-src kinase (Homo sapiens)
Construct: made in house; host or cells: baculovirus-infected insect cells
Sequence (P12931 whole entry): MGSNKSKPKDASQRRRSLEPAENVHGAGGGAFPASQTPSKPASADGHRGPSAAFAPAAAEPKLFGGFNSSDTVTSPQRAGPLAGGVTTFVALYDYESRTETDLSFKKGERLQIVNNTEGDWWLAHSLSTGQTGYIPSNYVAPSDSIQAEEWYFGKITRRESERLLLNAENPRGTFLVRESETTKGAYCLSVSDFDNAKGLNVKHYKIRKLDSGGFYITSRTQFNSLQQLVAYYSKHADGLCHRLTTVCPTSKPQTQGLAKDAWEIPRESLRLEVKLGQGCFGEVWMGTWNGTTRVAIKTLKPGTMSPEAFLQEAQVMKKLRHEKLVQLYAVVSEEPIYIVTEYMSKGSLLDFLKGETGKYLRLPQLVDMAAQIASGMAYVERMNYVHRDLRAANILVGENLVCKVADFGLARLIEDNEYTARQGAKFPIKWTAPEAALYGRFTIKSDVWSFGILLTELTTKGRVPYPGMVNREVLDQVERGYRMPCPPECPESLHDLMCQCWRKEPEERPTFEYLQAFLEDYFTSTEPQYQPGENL
Test: C-src kinase assay
Format: biochemical
Settings: read-out: Inhibition of Protein Tyrosine Kinases, C-src, IC50
The following compounds are listed with their measured log10(IC50) values.
Please note: log10 values; quantity IC50; unit nM.

compound: CCN(CC)CCCNc1ncc2cc(-c3c(Cl)cccc3Cl)c(NC(=O)NC(C)(C)C)nc2n1 [Example 21]
log10(IC50): 1.86
//
compound: CC(C)(C)NC(=O)Nc1nc2nc(N)ncc2cc1-c1cccnc1 [Example 108]
log10(IC50): 3.75
//
compound: CCCCCCCCNC(=O)Nc1nc2nc(NCCCN3CCN(C)CC3)ncc2cc1-c1c(Cl)cccc1Cl [Example 47]
log10(IC50): 2.21

Would you kindly share the measured log10(IC50) for CCCCNC(=O)Nc1ncc2cc(-c3c(Cl)cccc3Cl)c(NC(=O)NCCCC)nc2n1 [Example 25] ?
2.32

Can you check CN1CCN(CCCNc2ncc3cc(-c4c(Cl)cccc4Cl)c(NC(=O)Nc4ccc(Br)cc4)nc3n2)CC1 [Example 44] next?
1.36

Can you check CN(C)CCCNc1ncc2cc(-c3c(Cl)cccc3Cl)c(NC(=O)NC(C)(C)C)nc2n1 [Example 28] next?
2.07

Can you check CCCCNc1nc2nc(N)ncc2cc1-c1ccccc1 [Example 9] next?
4.26

Can you check CCN(CC)CCCCNc1ncc2cc(-c3c(Cl)cccc3Cl)c(N)nc2n1 [Example 53] next?
2.18

Can you check CCN(CCO)CCCNc1ncc2cc(-c3c(Cl)cccc3Cl)c(N)nc2n1 [Example 70] next?
2.97

Can you check CCNC(=O)Nc1nc2nc(NCCCN(CC)CC)ncc2cc1-c1c(Cl)cccc1Cl [Example 112] next?
1.89

---

The following molecules are listed with their measured pIC50 values.
Molecular target: human FGF-1 (flg) receptor tyrosine kinase (Homo sapiens, UniProt P11362)
Construct: a fragment of DNA that codes for the intracellular tyrosine kinase domain
Sequence (P11362 478-767 limits assumed): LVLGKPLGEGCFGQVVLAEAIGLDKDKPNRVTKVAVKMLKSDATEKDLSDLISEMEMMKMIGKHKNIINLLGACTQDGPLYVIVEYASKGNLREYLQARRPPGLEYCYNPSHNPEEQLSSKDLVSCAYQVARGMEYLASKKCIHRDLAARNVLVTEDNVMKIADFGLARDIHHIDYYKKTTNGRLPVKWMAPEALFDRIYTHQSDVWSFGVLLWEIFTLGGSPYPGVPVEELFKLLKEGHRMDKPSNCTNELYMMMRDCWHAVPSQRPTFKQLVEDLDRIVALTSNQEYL
Test: FGF receptor tyrosine kinase assay
Conditions: read-out: Inhibition of Protein Tyrosine Kinases, FGF, IC50
Please keep in mind that pIC50 is minus log10 of the molar concentration; only the number is needed.

// worked examples, pIC50 included
molecule: C=CCNC(=O)Nc1nc2nc(NCCCN3CCN(C)CC3)ncc2cc1-c1c(Cl)cccc1Cl [Example 40]
numericResult: 7.24

molecule: Cc1cc(C)cc(-c2cc3cnc(N)nc3nc2N)c1 [Example 94]
numericResult: 4.75

molecule: CC(C)NC(=O)Nc1nc2nc(NCCCN3CCN(C)CC3)ncc2cc1-c1c(Cl)cccc1Cl [Example 38]
numericResult: 7.33

molecule: CNc1nc2nc(N)ncc2cc1-c1ccc(OC)cc1 [Example 13]
numericResult: 4.52

Would you kindly share the measured pIC50 for CCN(CC)CCCNc1ncc2cc(-c3c(C)cccc3C)c(NC(=O)NC(C)(C)C)nc2n1 [Example 116] ?
6.47

---

Target: human FGF-1 (flg) receptor tyrosine kinase (Homo sapiens)
Construct: a fragment of DNA that codes for the intracellular tyrosine kinase domain
Assay: FGF receptor tyrosine kinase assay
Settings: read-out: Inhibition of Protein Tyrosine Kinases, FGF, IC50
The following molecules are listed with their measured log10 of IC50 values.
Please note: log10 values; quantity IC50; unit µM.

// worked examples, log10 of IC50 included
molecule: Nc1cc2nc(N)c(-c3ccccc3Cl)cc2cn1
testedOn: human FGF-1 (flg) receptor tyrosine kinase (Homo sapiens)
log10 of IC50: 0.65

molecule: CCCCNC(=O)Nc1ncc2cc(-c3c(Cl)cccc3Cl)c(NC(=O)NCCCC)nc2n1
testedOn: human FGF-1 (flg) receptor tyrosine kinase (Homo sapiens)
log10 of IC50: 1.07

molecule: Cc1cc(C)cc(-c2cc3cnc(N)nc3nc2NC(=O)NC(C)(C)C)c1
testedOn: human FGF-1 (flg) receptor tyrosine kinase (Homo sapiens)
log10 of IC50: -0.22

Would you kindly share the measured log10 of IC50 for "Nc1ncc2cc(-c3c(F)cccc3F)c(N)nc2n1" ?
-0.27

Can you check "COc1ccccc1-c1cc2cnc(N)nc2nc1NC(=O)NC(C)(C)C" next?
1.05

Can you check "CC(C)(C)NC(=O)Nc1ncc2cc(-c3c(Cl)cccc3Cl)c(NC(=O)NC(C)(C)C)nc2n1" next?
0.20

Can you check "CCN(CC)CCCNc1ncc2cc(-c3c(Cl)cccc3Cl)c(NC(=O)NC(C)(C)C)nc2n1" next?
-1.08

Can you check "CCN(CC)CCCNc1ncc2cc(-c3c(Cl)cccc3Cl)c(N)nc2n1" next?
0.38

Can you check "CCN(CC)CCCNc1ncc2cc(-c3c(C)cccc3C)c(N)nc2n1" next?
1.28

Can you check "CCN(CC)CCCNc1ncc2cc(-c3c(Br)cccc3Br)c(N)nc2n1" next?
0.89

---

The following compounds are listed with their measured IC50 values.
Target: mouse PDGF-β receptor tyrosine kinase (Mus musculus, UniProt P05622)
Construct: a fragment of DNA that codes for the intracellular tyrosine kinase domain
Sequence (P05622 599-961 limits assumed): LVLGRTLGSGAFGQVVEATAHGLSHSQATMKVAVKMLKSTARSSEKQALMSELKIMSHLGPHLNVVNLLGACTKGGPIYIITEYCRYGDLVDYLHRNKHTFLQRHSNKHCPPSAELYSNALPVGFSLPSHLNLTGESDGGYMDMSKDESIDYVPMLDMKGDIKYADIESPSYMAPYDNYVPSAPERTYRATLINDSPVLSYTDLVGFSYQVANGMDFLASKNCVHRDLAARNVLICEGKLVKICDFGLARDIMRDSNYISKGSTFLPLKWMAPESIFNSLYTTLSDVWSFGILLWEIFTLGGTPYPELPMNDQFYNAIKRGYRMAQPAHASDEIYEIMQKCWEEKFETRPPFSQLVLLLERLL
Assay: PDGF receptor tyrosine kinase assay
Details: read-out: Inhibition of Protein Tyrosine Kinases, PDGF, IC50
Kindly provide the numeric value in nM only, without the unit symbol.

// worked examples, IC50 included
compound: CCCCCCCCNC(=O)Nc1nc2nc(NCCCN3CCN(C)CC3)ncc2cc1-c1c(Cl)cccc1Cl
testedOn: mouse PDGF-β receptor tyrosine kinase (Mus musculus, UniProt P05622)
numericResult: 6170

compound: CC1CCCCN1CCCNc1ncc2cc(-c3c(Cl)cccc3Cl)c(NC(=O)NC(C)(C)C)nc2n1 (centres unmarked)
testedOn: mouse PDGF-β receptor tyrosine kinase (Mus musculus, UniProt P05622)
numericResult: 415

compound: CC(C)(C)NC(=O)Nc1nc2nc(N)ncc2cc1-c1c(Cl)ccc(Cl)c1Cl
testedOn: mouse PDGF-β receptor tyrosine kinase (Mus musculus, UniProt P05622)
numericResult: 2960

compound: CC(C)(C)NC(=O)Nc1nc2nc(N)ncc2cc1-c1ccccc1
testedOn: mouse PDGF-β receptor tyrosine kinase (Mus musculus, UniProt P05622)
numericResult: 4670

compound: CN1CCN(CCCCNc2ncc3cc(-c4c(Cl)cccc4Cl)c(NC(=O)NC(C)(C)C)nc3n2)CC1
testedOn: mouse PDGF-β receptor tyrosine kinase (Mus musculus, UniProt P05622)
numericResult: 349

Would you kindly share the measured IC50 for "CC(C)(C)NC(=O)Nc1nc2nc(N)ncc2cc1-c1c(Cl)cccc1Br" ?
618

Can you check "Cc1ccccc1-c1cc2cnc(N)nc2nc1NC(=O)NC(C)(C)C" next?
466

---

Target: C-src kinase (Homo sapiens)
Construct: made in house; host or cells: baculovirus-infected insect cells
Assay: C-src kinase assay
Assay type: biochemical
Details: read-out: Inhibition of Protein Tyrosine Kinases, C-src, IC50
The following compounds are listed with their measured log10 IC50 values.
Please note: log10 values; quantity IC50; unit nM.

// worked examples, log10 IC50 included
inputSmiles: CC(=O)Nc1ncc2cc(-c3c(Cl)cccc3Cl)c(NC(C)=O)nc2n1
log10 IC50: 3.36

inputSmiles: CN1CCN(CCCNc2ncc3cc(-c4c(Cl)cccc4Cl)c(NC(=O)Nc4ccc(C(F)(F)F)cc4)nc3n2)CC1
log10 IC50: 2.41

inputSmiles: CN1CCN(CCCNc2ncc3cc(-c4c(Cl)cccc4Cl)c(NC(=O)NCc4ccccc4)nc3n2)CC1
log10 IC50: 1.32

inputSmiles: Nc1ncc2cc(-c3c(F)cccc3F)c(N)nc2n1
log10 IC50: 3.25

inputSmiles: Nc1cc2nc(N)c(-c3ccccc3Cl)cc2cn1
log10 IC50: 3.44

Would you kindly share the measured log10 IC50 for "COc1cccc(NC(=O)Nc2nc3nc(NCCCN4CCN(C)CC4)ncc3cc2-c2c(Cl)cccc2Cl)c1" ?
1.51

Can you check "CC(C)(C)NC(=O)Nc1nc2nc(N)ncc2cc1-c1c(Cl)cccc1Br" next?
2.33

Can you check "CCNC(=O)Nc1nc2nc(NCCN(CC)CC)ncc2cc1-c1c(Cl)cccc1Cl" next?
3.19

Can you check "Nc1ncc2cc(-c3c(Cl)cccc3Cl)c(NC3=NCCO3)nc2n1" next?
2.33
